B1: ZNF207 (parent)
chain: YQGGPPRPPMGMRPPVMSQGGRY

# Variants of: B1
# test.protocol: protein stability index of a GFP-peptide fusion (GPS, HEK-293T) (PSI 1-6); higher = more stable;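 note: lentivirally expressed fusions sorted by FACS into six bins by GFP to DsRed ratio, PSI derived from sequencing read proportions per bin multiplied by bin number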
# assay.conditions: c terminus: native
Kindly supply the reported protein stability index values for the records listed here.

Which protein stability index is reported for this variant? "P9L"
1.28

// query: "V16N"
2.65

Do the same for "P5N" please
2.12

Likewise for "Y1M" ?
3.87

Follow-up entry: "S18D"
2.04

Item: "V16C"
2.44

# iterate: "Q2M"
2.05

Another: "G3M"
1.59

And for "P8S" ?
1.95

// query: "P15R"
2.07
